- assay info: ATG_SREBP_CIS: Attagene CIS-FACTORIAL HepG2 Assay for human Sterol Regulatory Element Binding (SREBP) (AID 2282962)
- test context: HepG2 Attagene cis-factorial SREBP reporter, mRNA; actives raise or lower the signal
Calls of active or inactive are those of the source. The calls were made as follows: active = hit-call score of the fitted dose curve at least 0.9, where 1 is the maximum; inactive = score below 0.9.
Outcomes: active, inactive

[
  {
    "compound": "CC/C=C\\CCOC(=O)CC",
    "class label": "inactive"
  },
  {
    "compound": "Cc1ccc(C)o1",
    "class label": "inactive"
  },
  {
    "compound": "O=C1OC(=O)c2c(Br)c(Br)c(Br)c(Br)c21",
    "class label": "inactive"
  },
  {
    "compound": "C=C(CC(=O)O)C(=O)O",
    "class label": "inactive"
  },
  {
    "compound": "O=C(O)c1cccnc1C(=O)O",
    "class label": "inactive"
  },
  {
    "compound": "CCCCC(CC)C(=O)OC(C)C (stereo not given)",
    "class label": "inactive"
  },
  {
    "compound": "COc1ccc(N=Nc2cc(C)c(N=Nc3ccc(S(=O)(=O)O)cc3)cc2OC)cc1",
    "class label": "active"
  },
  {
    "compound": "CCOC(=O)CC(C)O (stereo not given)",
    "class label": "inactive"
  },
  {
    "compound": "CCCCCCC(O)CCCCCCCCCCC(=O)O (stereo not given)",
    "class label": "inactive"
  },
  {
    "compound": "CCCSc1ccc2nc(NC(=O)OC)[nH]c2c1",
    "class label": "inactive"
  },
  {
    "compound": "CCC1CCCCC1",
    "class label": "inactive"
  },
  {
    "compound": "Cc1[nH]c(=O)c(C#N)cc1-c1ccncc1",
    "class label": "inactive"
  },
  {
    "compound": "O=C(Nc1ccc2c(c1)Cc1ccccc1-2)C(F)(F)F",
    "class label": "inactive"
  },
  {
    "compound": "N[C@@H](Cc1cc(I)c(Oc2cc(I)c(O)c(I)c2)c(I)c1)C(=O)O",
    "class label": "active"
  },
  {
    "compound": "CC[N+](C)(CC)CC",
    "class label": "inactive"
  }
]

====

- Read-out: Interleukin-1 alpha (IL1a), IL1A (gene 3552)
- assay info: BSK_LPS_IL1a: BioMAP Diversity Plus: LPS Assay for Interleukin-1 alpha (IL1a) Biomarker Activity (AID 2283080)
- test context: primary human HUVEC with PBMC; actives raise or lower the signal
Activity calls are given as the source filed them. The calls were made as follows: active = hit-call score of the fitted dose curve at least 0.9, where 1 is the maximum; inactive = score below 0.9.
Outcomes: active, inactive

[
  {
    "compound": "CC(=O)c1c(C)c([N+](=O)[O-])c(C(C)(C)C)c([N+](=O)[O-])c1C",
    "class label": "inactive"
  },
  {
    "compound": "C=C(C)C(=O)OCCOCCOCCOC(=O)C(=C)C",
    "class label": "inactive"
  },
  {
    "compound": "CN(C)C(=S)SC(=S)N(C)C",
    "class label": "inactive"
  },
  {
    "compound": "CCOC(=O)C(C#N)=C(c1ccccc1)c1ccccc1",
    "class label": "inactive"
  },
  {
    "compound": "C1=CC2C3C=CC(C3)C2C1 (configuration not stated)",
    "class label": "inactive"
  },
  {
    "compound": "Oc1c(Cl)cc(Cl)c(Cl)c1Cc1c(O)c(Cl)cc(Cl)c1Cl",
    "class label": "active"
  },
  {
    "compound": "COc1cc(Cl)c(OC)cc1N",
    "class label": "inactive"
  },
  {
    "compound": "CS(=O)(=O)OCCCCOS(C)(=O)=O",
    "class label": "inactive"
  },
  {
    "compound": "C=C(C)[C@H]1CC=C(C)C(=O)C1",
    "class label": "inactive"
  },
  {
    "compound": "CC1(C)C2=CCCC(C)(C)[C@]23CC[C@H]1C3",
    "class label": "inactive"
  },
  {
    "compound": "CCN(CC)C(=O)N(CC)CC",
    "class label": "inactive"
  },
  {
    "compound": "O=C1OC2(c3ccccc31)c1ccc(O)c(Br)c1Oc1c2ccc(O)c1Br",
    "class label": "active"
  }
]

Source: PubChem BioAssay (EPA / NIEHS)
